- Tested on: HEK-293T
- assay_notes: Incucyte cell viability with HEK293T; further: unitless GR value; below 1 slowed growth and below 0 cell loss
- Type: toxicity, cell-based
- experimental_setup: human, 24 h, 10 µM, compound concentration 10 uM, replicate number 1
Field: label. Allowed values: Fulfilled (Growth Rate < 0.7) or Not fulfilled (Growth Rate >= 0.7).

Some entries whose results are on file:
{"molecule": "CN(C)[C@H]1CCc2nc(NC(=O)c3cccc(Cn4cc(-c5ccc(C#N)cc5)cn4)c3)sc2C1.O=C(O)C(F)(F)F", "measured_on": "HEK-293T", "group": "Fulfilled"}
{"molecule": "CCC(=O)N[C@H]1CC[C@@H](C(=O)N(C)c2ccc(-c3nc4ccccc4o3)cc2)C1", "measured_on": "HEK-293T", "group": "Fulfilled"}
{"molecule": "CN(C)[C@H]1CC[C@H](Nc2ncc3ncnc(Nc4ccc(F)c(Cl)c4)c3n2)CC1", "measured_on": "HEK-293T", "group": "Fulfilled"}
{"molecule": "CC1(C)Oc2ncnc(N)c2N=C1c1ccc([C@H]2CC[C@H](CC(=O)O)CC2)cc1", "measured_on": "HEK-293T", "group": "Not fulfilled"}

Now for another entry.
stdin: Item `C[C@@H]1CN(CC(=O)N2CC(C)(C)c3nc(CO)c(Cc4ccc(F)cc4)cc32)[C@@H](CN2CCOC[C@H]2C)CN1` : Growth Rate beneath 0.7, strictly?
stdout: Not fulfilled
